Header: Ki / Peptidyl-prolyl cis-trans isomerase NIMA-interacting 1 (Homo sapiens, UniProt Q13526) / multiple publications
For each record, check the reported Ki: if it is below 400 nM write met, else write not met.

{"molecule": "O=C(O)C1(Cc2cc3ccc(F)cc3[nH]2)CSC(/C=C/c2c(Cl)cccc2Cl)=N1 (racemic)", "target or test system": "Peptidyl-prolyl cis-trans isomerase NIMA-interacting 1 (Homo sapiens, UniProt Q13526)", "class assignment": "not met"}
{"molecule": "O=C(NC(Cc1cc2ccccc2o1)C(=O)O)c1ccc2ccccc2c1 (stereo not given)", "target or test system": "Peptidyl-prolyl cis-trans isomerase NIMA-interacting 1 (Homo sapiens, UniProt Q13526)", "class assignment": "not met"}
{"molecule": "O=C(NCc1ccc2c(c1)OCO2)C1C(COP(=O)(O)O)C2CCCN2C1c1ccc2ccccc2c1 (racemic)", "target or test system": "Peptidyl-prolyl cis-trans isomerase NIMA-interacting 1 (Homo sapiens, UniProt Q13526)", "class assignment": "not met"}
{"molecule": "O=C(NC(Cc1nc2ccccc2[nH]1)C(=O)O)c1ccc2ccccc2c1 (racemic)", "target or test system": "Peptidyl-prolyl cis-trans isomerase NIMA-interacting 1 (Homo sapiens, UniProt Q13526)", "class assignment": "not met"}
{"molecule": "Cc1ccc2[nH]c(C[C@@H](NC(=O)c3cc4ccccc4s3)C(=O)O)nc2c1", "target or test system": "Peptidyl-prolyl cis-trans isomerase NIMA-interacting 1 (Homo sapiens, UniProt Q13526)", "class assignment": "not met"}
{"molecule": "O=C(N[C@H](Cc1nc2cc(Cl)ccc2[nH]1)C(=O)O)c1cc2ccccc2s1", "target or test system": "Peptidyl-prolyl cis-trans isomerase NIMA-interacting 1 (Homo sapiens, UniProt Q13526)", "class assignment": "met"}
{"molecule": "S=C(SC(=S)N1CCCCC1)N1CCCCC1", "target or test system": "Peptidyl-prolyl cis-trans isomerase NIMA-interacting 1 (Homo sapiens, UniProt Q13526)", "class assignment": "met"}
{"molecule": "O=C(NCc1ccccc1)C1C(COP(=O)(O)O)C2CCCN2C1c1ccccc1 (racemic)", "target or test system": "Peptidyl-prolyl cis-trans isomerase NIMA-interacting 1 (Homo sapiens, UniProt Q13526)", "class assignment": "not met"}
{"molecule": "O=C(N[C@H](Cc1nc2cc(F)ccc2[nH]1)C(=O)O)c1cc2ccccc2s1", "target or test system": "Peptidyl-prolyl cis-trans isomerase NIMA-interacting 1 (Homo sapiens, UniProt Q13526)", "class assignment": "met"}
{"molecule": "O=C(N[C@H](Cc1nc2cc(F)ccc2[nH]1)C(=O)O)c1ccc2ccccc2c1", "target or test system": "Peptidyl-prolyl cis-trans isomerase NIMA-interacting 1 (Homo sapiens, UniProt Q13526)", "class assignment": "met"}
{"molecule": "CC(=O)N[C@@H](Cc1ccccc1)C(=O)N[C@H](C(=O)N1CCCC[C@@H]1C(=O)N[C@@H](Cc1ccc2ccccc2c1)C(=O)N[C@@H](CCC(N)=O)C(N)=O)[C@H](C)OP(=O)(O)O", "target or test system": "Peptidyl-prolyl cis-trans isomerase NIMA-interacting 1 (Homo sapiens, UniProt Q13526)", "class assignment": "not met"}
{"molecule": "O=C(O)C1(Cc2cc3ccc(F)cc3[nH]2)CSC(CCc2c(Cl)cccc2Cl)=N1 (racemic)", "target or test system": "Peptidyl-prolyl cis-trans isomerase NIMA-interacting 1 (Homo sapiens, UniProt Q13526)", "class assignment": "met"}
{"molecule": "O=C(CCc1c(Cl)cccc1Cl)N[C@H](Cc1cc2ccc(F)cc2[nH]1)C(=O)O", "target or test system": "Peptidyl-prolyl cis-trans isomerase NIMA-interacting 1 (Homo sapiens, UniProt Q13526)", "class assignment": "met"}
{"molecule": "O=C(N[C@H](Cc1cc2ccc(F)cc2[nH]1)C(=O)O)c1ccc2ccccc2c1", "target or test system": "Peptidyl-prolyl cis-trans isomerase NIMA-interacting 1 (Homo sapiens, UniProt Q13526)", "class assignment": "met"}
